test system: PXR homodimer (NR concentration 270 nM); assay: PBM binding z-score (relative to random genomic background probes); higher = stronger binding; sequences stand for … in GC…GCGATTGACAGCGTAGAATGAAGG
Decision: PBM binding z-score compared against -0.05; not below it gives 1 (yes), below it gives 0 (no).

1) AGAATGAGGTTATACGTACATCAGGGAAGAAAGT :: 1 (yes)
2) TAGCCTAGGTCATCGGGCCAGTATAGTACGCATC :: 0 (no)
3) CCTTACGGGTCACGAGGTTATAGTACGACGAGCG :: 1 (yes)
4) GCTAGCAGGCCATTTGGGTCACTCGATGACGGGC :: 0 (no)
5) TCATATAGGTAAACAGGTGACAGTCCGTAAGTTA :: 1 (yes)

---

test system: RXRa homodimer (NR concentration 180 nM); assay: PBM binding z-score (relative to random genomic background probes); higher = stronger binding; sequences stand for … in GC…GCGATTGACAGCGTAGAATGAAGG
Property label: PBM binding z-score

1) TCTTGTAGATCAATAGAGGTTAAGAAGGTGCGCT :: 1.33
2) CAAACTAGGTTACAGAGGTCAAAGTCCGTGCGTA :: 7.1
3) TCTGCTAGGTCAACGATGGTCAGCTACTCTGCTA :: 2.64
4) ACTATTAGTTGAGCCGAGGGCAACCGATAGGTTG :: 0.52
5) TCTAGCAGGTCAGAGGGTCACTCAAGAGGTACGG :: 5.09
6) ATATGTAGGATACATCCGGGTCATTCAGGCTATG :: 1.95
7) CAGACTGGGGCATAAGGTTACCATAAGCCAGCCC :: 1.6
8) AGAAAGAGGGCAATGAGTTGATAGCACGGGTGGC :: 1.07
9) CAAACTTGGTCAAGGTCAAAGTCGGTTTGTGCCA :: 4.72
10) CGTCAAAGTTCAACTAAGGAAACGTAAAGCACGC :: 4.94
11) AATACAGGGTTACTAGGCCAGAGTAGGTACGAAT :: 1.57
12) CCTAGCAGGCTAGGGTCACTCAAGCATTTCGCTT :: 3.65

---

system: RARa homodimer (NR concentration 270 nM); experiment: PBM binding z-score (relative to random genomic background probes); higher = stronger binding; sequences stand for … in GC…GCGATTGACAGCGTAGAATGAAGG
Decision: PBM binding z-score compared against 0.1; not below it gives fulfilled, below it gives not fulfilled.

1) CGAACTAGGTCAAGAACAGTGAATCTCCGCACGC :: fulfilled
2) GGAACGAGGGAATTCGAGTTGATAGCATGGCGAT :: not fulfilled
3) TCTGCTAGGTCAGTTGGTCAGCTAGCGAGCTGCC :: not fulfilled
4) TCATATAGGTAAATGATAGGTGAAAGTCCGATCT :: fulfilled
5) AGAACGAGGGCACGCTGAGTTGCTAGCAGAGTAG :: not fulfilled
6) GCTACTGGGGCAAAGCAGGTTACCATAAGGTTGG :: not fulfilled
7) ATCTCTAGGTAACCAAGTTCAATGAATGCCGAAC :: fulfilled
8) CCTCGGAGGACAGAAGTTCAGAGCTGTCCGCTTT :: not fulfilled
9) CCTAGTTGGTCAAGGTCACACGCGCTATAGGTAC :: fulfilled
10) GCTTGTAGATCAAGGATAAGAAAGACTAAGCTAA :: not fulfilled
11) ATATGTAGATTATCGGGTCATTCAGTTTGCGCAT :: fulfilled
12) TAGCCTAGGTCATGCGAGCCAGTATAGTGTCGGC :: not fulfilled
13) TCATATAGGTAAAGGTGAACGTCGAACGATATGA :: fulfilled
14) CCTGCTAGGTCATCGTCAGCTAATCTACAGTATG :: not fulfilled
15) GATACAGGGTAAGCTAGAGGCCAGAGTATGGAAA :: not fulfilled
16) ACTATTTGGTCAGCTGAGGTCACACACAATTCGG :: fulfilled
17) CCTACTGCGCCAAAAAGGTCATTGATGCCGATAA :: fulfilled
18) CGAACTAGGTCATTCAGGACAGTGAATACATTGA :: fulfilled
19) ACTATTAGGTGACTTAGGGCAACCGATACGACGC :: fulfilled
20) AGAATGAGGTTCTTAAGATCAGGGAATTGCGGTC :: not fulfilled
21) GGAACGAGGGCAAGTTGATAGCGGAGTTTGATGG :: not fulfilled
22) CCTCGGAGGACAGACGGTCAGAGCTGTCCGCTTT :: not fulfilled
23) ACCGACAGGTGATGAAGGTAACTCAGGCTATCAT :: fulfilled
24) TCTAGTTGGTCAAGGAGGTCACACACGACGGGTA :: fulfilled
25) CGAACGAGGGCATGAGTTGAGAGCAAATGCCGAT :: not fulfilled
